- assay_system: human β3-adrenergic receptor (Homo sapiens)
- Construct: expressed in transfected cells
- Sequence (P13945 whole entry): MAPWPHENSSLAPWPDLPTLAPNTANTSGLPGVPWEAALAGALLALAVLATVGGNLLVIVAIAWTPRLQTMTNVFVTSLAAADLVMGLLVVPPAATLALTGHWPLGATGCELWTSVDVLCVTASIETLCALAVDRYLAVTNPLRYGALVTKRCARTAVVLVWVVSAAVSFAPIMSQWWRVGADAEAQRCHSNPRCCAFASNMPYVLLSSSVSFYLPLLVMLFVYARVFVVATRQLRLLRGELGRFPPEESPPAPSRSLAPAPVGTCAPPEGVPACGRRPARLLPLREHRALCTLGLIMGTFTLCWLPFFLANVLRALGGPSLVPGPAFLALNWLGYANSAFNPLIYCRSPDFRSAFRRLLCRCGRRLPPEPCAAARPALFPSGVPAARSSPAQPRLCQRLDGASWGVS
- protocol_description: cAMP levels in CHO-K1 cells expressing the human β3-adrenergic receptor
- Type: cell-based
- measurement_setup: CHO-K1, 0.25 h, 15 min, read-out: Activity (intracellular cAMP compared to that of isoproterenol)
test_readout: Emax at 10 µM

{"columns": ["item_smiles", "assay_system", "Emax at 10 µM"],
 "data": [
  ["CCCS(=O)(=O)N[C@H]1CC[C@H](CC(C)(C)NC[C@H](O)c2cncc(F)c2)CC1", "human β3-adrenergic receptor (Homo sapiens)", "> 75%"],
  ["CO[C@H]1CC[C@@H](CC(C)(C)NC[C@H](O)c2ccc(F)c(N)c2F)CC1", "human β3-adrenergic receptor (Homo sapiens)", "> 75%"],
  ["CC(C)(CC[C@H]1CC[C@@H](O)CC1)NC[C@H](O)c1ccccc1F", "human β3-adrenergic receptor (Homo sapiens)", "50 to 75%"],
  ["CC12CC(C1)[C@H]([C@H](O)c1cccc(F)c1)N2", "human β3-adrenergic receptor (Homo sapiens)", "50 to 75%"],
  ["CCS(=O)(=O)N[C@H]1CC[C@H](CC(C)(C)NC[C@H](O)c2cccc(F)c2)CC1", "human β3-adrenergic receptor (Homo sapiens)", "> 75%"],
  ["CCCS(=O)(=O)N[C@H]1CC[C@H](CC(C)(C)NC[C@H](O)c2cccc(F)c2)CC1", "human β3-adrenergic receptor (Homo sapiens)", "> 75%"]
]}

Consider the compound CC(=O)N[C@H]1CC[C@@H](C[C@@H]2CC[C@H]([C@H](O)c3cccc(F)c3F)N2)CC1 and give its measured Emax at 10 µM.
> 75%

Consider the compound CCCCS(=O)(=O)N[C@H]1CC[C@H](CC(C)(C)NC[C@H](O)c2cccc(F)c2)CC1 and give its measured Emax at 10 µM.
> 75%

Consider the compound CC(C)CS(=O)(=O)N[C@H]1CC[C@@H](CC(C)(C)NC[C@H](O)c2cccc(F)c2)CC1 and give its measured Emax at 10 µM.
> 75%
